- Test system: 855422-203-R-J1-PDC complex spheroid viability
- measurement notes: Anticancer human tumor 855422-203-R-J1-PDC patient-derived bladder carcinoma cell line growth inhibition [POLQ]
- reported conditions: second compound 3.16 µM; first compound 0.316 µM; stronger effect = lower value
- Description: Multicellular complex tumor spheroid response to Polymerase (POL) inhibitors (novobiocin, ART-558, RP6685) in combination with a variety of drugs and investigational agents in selected tumor cell lines The POL inhibitors (novobiocin, ART-558, and RP6685) were evaluated both individually and in combination with standard of care and investigational anticancer small molecules within a complex spheroid model of solid tumors. . […]
The reader will find reported viability, T/C values listed item by item below.
Provide only the numeric value, understood in %.

Examples with their reported viability, T/C follow.
molecule	system	viability, T/C (%)
COc1cc2cc(C(=O)CCC(=O)O)sc2cc1OC + Cc1cccc(N(C)C(=O)C2C(O)CCN2c2nc(C)cc(C(F)(F)F)c2C#N)c1	855422-203-R-J1-PDC complex spheroid viability	102
Nc1ccn(C2OC(CO)C(O)C2(F)F)c(=O)n1 (stereo not drawn) + Nc1ccc(C#CCN(C(=O)Cc2ncc(C(F)(F)F)cc2C(F)(F)F)c2ccc(F)cc2)nn1	855422-203-R-J1-PDC complex spheroid viability	19.4

Proceeding to the next molecule to report its viability, T/C.
Q: # value lookup — system 855422-203-R-J1-PDC complex spheroid viability, readout viability, T/C, item CNCc1ccc(-c2[nH]c3cc(F)cc4c3c2CCNC4=O)cc1 + COC1C(OC(N)=O)C(O)C(Oc2ccc3c(O)c(NC(=O)c4ccc(O)c(CC=C(C)C)c4)c(=O)oc3c2C)OC1(C)C
A: 112

----------
- Test system: 855422-203-R-J1-PDC complex spheroid viability
- measurement notes: Anticancer human tumor 855422-203-R-J1-PDC cell line growth inhibition [POLQ];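 further: spheroids exposed to compounds for seven days before readout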
- reported conditions: second compound 0.0316 µM; first compound 0.1 µM; stronger effect = lower value
assay metric: viability, T/C (%)
Provide only the numeric value, understood in %.

Examples with their reported viability, T/C follow.
compound	unit abbreviation	viability, T/C
CNCc1ccc(-c2[nH]c3cc(F)cc4c3c2CCNC4=O)cc1 + COC1C(OC(N)=O)C(O)C(Oc2ccc3c(O)c(NC(=O)c4ccc(O)c(CC=C(C)C)c4)c(=O)oc3c2C)OC1(C)C	%	104
CC1COCCN1c1cc(-c2ccnn2C)c2ccnc(-c3ccn[nH]3)c2n1 (stereo not given) + Nc1ccc(C#CCN(C(=O)Cc2ncc(C(F)(F)F)cc2C(F)(F)F)c2ccc(F)cc2)nn1	%	124
CC1COCCN1c1cc(C2(O)CC3CCC(C2)O3)c2cnn(-c3ccn[nH]3)c2n1 (stereo not given) + COC1C(OC(N)=O)C(O)C(Oc2ccc3c(O)c(NC(=O)c4ccc(O)c(CC=C(C)C)c4)c(=O)oc3c2C)OC1(C)C	%	54.2

Q: # value lookup — system 855422-203-R-J1-PDC complex spheroid viability, readout viability, T/C, item CC(C)n1c(=O)n(C)c2cnc3cc(F)c(-c4ccc(OCCCN5CCCCC5)nc4)cc3c21 + COC1C(OC(N)=O)C(O)C(Oc2ccc3c(O)c(NC(=O)c4ccc(O)c(CC=C(C)C)c4)c(=O)oc3c2C)OC1(C)C
A: 92.7

Q: # value lookup — system 855422-203-R-J1-PDC complex spheroid viability, readout viability, T/C, item O=C(c1cc(Cc2n[nH]c(=O)c3ccccc23)ccc1F)N1CCN(C(=O)C2CC2)CC1 + COC1C(OC(N)=O)C(O)C(Oc2ccc3c(O)c(NC(=O)c4ccc(O)c(CC=C(C)C)c4)c(=O)oc3c2C)OC1(C)C
A: 107

----------
- Tested on: 855422-203-R-J1-PDC complex spheroid viability
- measurement notes: Anticancer human tumor 855422-203-R-J1-PDC cell line growth inhibition [POLQ]; active = viability on the fitted dose curve at most 10% of control; inactive = the rest;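 further: spheroids exposed to compounds for seven days before readout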
- reported conditions: second compound 3.16 µM; first compound 0.1 µM
Your reply should match one of these outcome classes. active, inactive

See these solved cases before continuing.
compound	qualitative label
COc1cccc(OCCCN)c1-c1cc(Nc2cnc(C#N)cn2)n[nH]1 + COC1C(OC(N)=O)C(O)C(Oc2ccc3c(O)c(NC(=O)c4ccc(O)c(CC=C(C)C)c4)c(=O)oc3c2C)OC1(C)C	active
COc1cccc2c1C(=O)c1c(O)c3c(c(O)c1C2=O)CC(O)(C(=O)CO)CC3OC1CC(N)C(O)C(C)O1 (stereo not given) + Cc1cccc(N(C)C(=O)C2C(O)CCN2c2nc(C)cc(C(F)(F)F)c2C#N)c1	active

Q: # lookup: test call for CCc1cc2c(N3CCc4c(cc(Cn5ccnc5)cc4-c4cn(C)nc4C(F)(F)F)C3=O)cc(C)nc2c(OC)n1 + COC1C(OC(N)=O)C(O)C(Oc2ccc3c(O)c(NC(=O)c4ccc(O)c(CC=C(C)C)c4)c(=O)oc3c2C)OC1(C)C
A: inactive

Q: # lookup: test call for COc1ccc([C@@H](O)c2cc(-c3ncnc4cc(N5CCOCC5)ccc34)c(F)cc2Cl)nn1 + Cc1cccc(N(C)C(=O)C2C(O)CCN2c2nc(C)cc(C(F)(F)F)c2C#N)c1
A: inactive

Q: # lookup: test call for COc1cc(C2c3cc4c(cc3C(OC3OC5COC(C)OC5C(O)C3O)C3COC(=O)C23)OCO4)cc(OC)c1O (stereo not given) + Nc1ccc(C#CCN(C(=O)Cc2ncc(C(F)(F)F)cc2C(F)(F)F)c2ccc(F)cc2)nn1
A: inactive

----------
- System: 855422-203-R-J1-PDC complex spheroid viability
- measurement notes: Anticancer human tumor 855422-203-R-J1-PDC cell line growth inhibition [POLQ];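 further: spheroids exposed to compounds for seven days before readout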
- reported conditions: second compound 10 µM; first compound 0.0316 µM; stronger effect = lower value
assay metric: viability, T/C

Examples with their reported viability, T/C follow.
compound	viability, T/C
CC1COCCN1c1cc(-c2ccnn2C)c2ccnc(-c3ccn[nH]3)c2n1 (stereo not given) + Cc1cccc(N(C)C(=O)C2C(O)CCN2c2nc(C)cc(C(F)(F)F)c2C#N)c1	93.5%
C=CC(=O)N1CCN(c2nc(=O)n(-c3c(C)ccnc3C(C)C)c3nc(-c4c(O)cccc4F)c(F)cc23)C(C)C1 (stereo not given) + COC1C(OC(N)=O)C(O)C(Oc2ccc3c(O)c(NC(=O)c4ccc(O)c(CC=C(C)C)c4)c(=O)oc3c2C)OC1(C)C	109%
CCc1cc2c(N3CCc4c(cc(Cn5ccnc5)cc4-c4cn(C)nc4C(F)(F)F)C3=O)ccnc2c(OC)n1 + COC1C(OC(N)=O)C(O)C(Oc2ccc3c(O)c(NC(=O)c4ccc(O)c(CC=C(C)C)c4)c(=O)oc3c2C)OC1(C)C	99.3%
CCc1cc2c(N3CCc4c(cc(Cn5ccnc5)cc4-c4cn(C)nc4C(F)(F)F)C3=O)cc(C)nc2c(OC)n1 + Cc1cccc(N(C)C(=O)C2C(O)CCN2c2nc(C)cc(C(F)(F)F)c2C#N)c1	110%

Proceeding to the next compound to report its viability, T/C.
Q: Fill blank: measured viability, T/C of the compound COc1cc2cc(C(=O)CCC(=O)O)sc2cc1OC + COC1C(OC(N)=O)C(O)C(Oc2ccc3c(O)c(NC(=O)c4ccc(O)c(CC=C(C)C)c4)c(=O)oc3c2C)OC1(C)C is ____.
A: 104%

----------
The reader will find reported viability, T/C values listed item by item below.
- Tested on: 855422-203-R-J1-PDC complex spheroid viability
- measurement notes: Anticancer human tumor 855422-203-R-J1-PDC cell line growth inhibition [POLQ];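 further: spheroids exposed to compounds for seven days before readout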
- reported conditions: second compound 0.0316 µM; first compound 10 µM; stronger effect = lower value
Provide only the numeric value, understood in %.

Examples with their reported viability, T/C follow.
compound	viability, T/C (%)
O=c1[nH]cc(F)c(=O)[nH]1 + Cc1cccc(N(C)C(=O)C2C(O)CCN2c2nc(C)cc(C(F)(F)F)c2C#N)c1	25.7
COc1cc(C2c3cc4c(cc3C(OC3OC5COC(C)OC5C(O)C3O)C3COC(=O)C23)OCO4)cc(OC)c1O (stereo unspecified) + Cc1cccc(N(C)C(=O)C2C(O)CCN2c2nc(C)cc(C(F)(F)F)c2C#N)c1	4.64
COc1cc(C2c3cc4c(cc3C(OC3OC5COC(C)OC5C(O)C3O)C3COC(=O)C23)OCO4)cc(OC)c1O (stereo unspecified) + COC1C(OC(N)=O)C(O)C(Oc2ccc3c(O)c(NC(=O)c4ccc(O)c(CC=C(C)C)c4)c(=O)oc3c2C)OC1(C)C	5.28

Q: Fill blank: measured viability, T/C of the compound O=c1[nH]cc(F)c(=O)[nH]1 + Nc1ccc(C#CCN(C(=O)Cc2ncc(C(F)(F)F)cc2C(F)(F)F)c2ccc(F)cc2)nn1 is ____.
A: 43.9

Q: Fill blank: measured viability, T/C of the compound CNCc1ccc(-c2[nH]c3cc(F)cc4c3c2CCNC4=O)cc1 + COC1C(OC(N)=O)C(O)C(Oc2ccc3c(O)c(NC(=O)c4ccc(O)c(CC=C(C)C)c4)c(=O)oc3c2C)OC1(C)C is ____.
A: 105

Q: Fill blank: measured viability, T/C of the compound CCc1cc2c(N3CCc4c(cc(Cn5ccnc5)cc4-c4cn(C)nc4C(F)(F)F)C3=O)cc(C)nc2c(OC)n1 + Cc1cccc(N(C)C(=O)C2C(O)CCN2c2nc(C)cc(C(F)(F)F)c2C#N)c1 is ____.
A: 35.2
